Hello, the source for this data is PubChem BioAssay AID1963430, in case you need it.

In this section we review reported viability, T/C values for a set of molecules.
system: 521955-158-R2-J5-PDC complex spheroid growth, % test/control; assay: Anticancer human tumor 521955-158-R2-J5-PDC patient-derived pancreatic carcinoma cell line growth inhibition [Asc]; settings: second compound 0.0949 µM; first compound 0.316 µM; hits give low values
reportedMetric: viability, T/C (%)

molecule: COc1c(OCCCN2CCOCC2)ccc2c3n(c(=NC(=O)c4cnc(N)nc4)nc12)CCN3 + CCN1C(C(=O)NC23CCC(C(=O)O)(CC2)CC3)C(c2cccc(Cl)c2F)C2(C(=O)Nc3cc(Cl)ccc32)C12CCCCC2
system: 521955-158-R2-J5-PDC complex spheroid growth, % test/control
observed: 19

molecule: CCN1CCN(Cc2ccc(Nc3ncc(F)c(-c4cc(F)c5nc(C)n(C(C)C)c5c4)n3)nc2)CC1 + CCN1C(C(=O)NC23CCC(C(=O)O)(CC2)CC3)C(c2cccc(Cl)c2F)C2(C(=O)Nc3cc(Cl)ccc32)C12CCCCC2
system: 521955-158-R2-J5-PDC complex spheroid growth, % test/control
observed: 73.2

molecule: O=C(c1cc(Cc2n[nH]c(=O)c3ccccc23)ccc1F)N1CCN(C(=O)C2CC2)CC1 + CCN1C(C(=O)NC23CCC(C(=O)O)(CC2)CC3)C(c2cccc(Cl)c2F)C2(C(=O)Nc3cc(Cl)ccc32)C12CCCCC2
system: 521955-158-R2-J5-PDC complex spheroid growth, % test/control
observed: 99

molecule: CNC(C)C(=O)NC1CN(S(=O)(=O)c2cccc(S(=O)(=O)N3CCC4CCC(C(=O)NC(c5ccccc5)c5ccccc5)N4C(=O)C(NC(=O)C(C)NC)C3)c2)CCC2CCC(C(=O)NC(c3ccccc3)c3ccccc3)N2C1=O (centres undefined) + CCN1C(C(=O)NC23CCC(C(=O)O)(CC2)CC3)C(c2cccc(Cl)c2F)C2(C(=O)Nc3cc(Cl)ccc32)C12CCCCC2
system: 521955-158-R2-J5-PDC complex spheroid growth, % test/control
observed: 105

* * *

system: 521955-158-R2-J5-PDC complex spheroid growth, % test/control; experiment: Anticancer human tumor 521955-158-R2-J5-PDC cell line growth inhibition [Asc]; settings: second compound 0.01 µM; first compound 3.16 µM; hits give low values;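 further: spheroids exposed to agents for 7 days before readout; 100% = DMSO vehicle control viability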
reportedMetric: viability, T/C (%)

molecule: O=C(c1cc(Cc2n[nH]c(=O)c3ccccc23)ccc1F)N1CCN(C(=O)C2CC2)CC1 + CNC(C)C(=O)NC1CN(S(=O)(=O)c2cccc(S(=O)(=O)N3CCC4CCC(C(=O)NC(c5ccccc5)c5ccccc5)N4C(=O)C(NC(=O)C(C)NC)C3)c2)CCC2CCC(C(=O)NC(c3ccccc3)c3ccccc3)N2C1=O
reportedMetric: viability, T/C
observed: 73.4
--
molecule: C=CC(=O)N1CCN(c2nc(=O)n(-c3c(C)ccnc3C(C)C)c3nc(-c4c(O)cccc4F)c(F)cc23)C(C)C1 (centres undefined) + CNC(C)C(=O)NC1CN(S(=O)(=O)c2cccc(S(=O)(=O)N3CCC4CCC(C(=O)NC(c5ccccc5)c5ccccc5)N4C(=O)C(NC(=O)C(C)NC)C3)c2)CCC2CCC(C(=O)NC(c3ccccc3)c3ccccc3)N2C1=O
reportedMetric: viability, T/C
observed: 119
--
molecule: C#Cc1c(F)ccc2cc(O)cc(-c3ncc4c(N5CC6CCC(C5)N6)nc(OCC56CCCN5CC(F)C6)nc4c3F)c12 (centres undefined) + CNC(C)C(=O)NC1CN(S(=O)(=O)c2cccc(S(=O)(=O)N3CCC4CCC(C(=O)NC(c5ccccc5)c5ccccc5)N4C(=O)C(NC(=O)C(C)NC)C3)c2)CCC2CCC(C(=O)NC(c3ccccc3)c3ccccc3)N2C1=O
reportedMetric: viability, T/C
observed: 19.2
--
molecule: C=C(F)C(=O)N1CCN(c2nc(OCC3CCCN3C)nc3c2CCN(c2cccc4cccc(Cl)c24)C3)CC1CC#N (centres undefined) + CNC(C)C(=O)NC1CN(S(=O)(=O)c2cccc(S(=O)(=O)N3CCC4CCC(C(=O)NC(c5ccccc5)c5ccccc5)N4C(=O)C(NC(=O)C(C)NC)C3)c2)CCC2CCC(C(=O)NC(c3ccccc3)c3ccccc3)N2C1=O
reportedMetric: viability, T/C
observed: 92.6
